# TESTED SYSTEM: meprin α (Homo sapiens)
# PROTOCOL TEXT: Meprin α assay, fluorogenic substrate (Mca)-YVADAPK-(K-ε-Dnp), 384 and 1536 well plate formats
# Assay type: biochemical
# CONDITION CONTEXT: 1536 wpf; enzyme 1.3nM; time 90 min; read-out: Actinonin IC50
MEASUREMENT KIND: pIC50
Scale note: pIC50 = -log10(concentration in M).

What value of pIC50 has been reported for the following molecule? CCCCC[C@H](CC(=O)NO)C(=O)N[C@H](C(=O)N1CCC[C@H]1CO)C(C)C
8.20

====

# TESTED SYSTEM: meprin α (Homo sapiens, UniProt Q16819)
# Sequence (Q16819 66-593 limits assumed): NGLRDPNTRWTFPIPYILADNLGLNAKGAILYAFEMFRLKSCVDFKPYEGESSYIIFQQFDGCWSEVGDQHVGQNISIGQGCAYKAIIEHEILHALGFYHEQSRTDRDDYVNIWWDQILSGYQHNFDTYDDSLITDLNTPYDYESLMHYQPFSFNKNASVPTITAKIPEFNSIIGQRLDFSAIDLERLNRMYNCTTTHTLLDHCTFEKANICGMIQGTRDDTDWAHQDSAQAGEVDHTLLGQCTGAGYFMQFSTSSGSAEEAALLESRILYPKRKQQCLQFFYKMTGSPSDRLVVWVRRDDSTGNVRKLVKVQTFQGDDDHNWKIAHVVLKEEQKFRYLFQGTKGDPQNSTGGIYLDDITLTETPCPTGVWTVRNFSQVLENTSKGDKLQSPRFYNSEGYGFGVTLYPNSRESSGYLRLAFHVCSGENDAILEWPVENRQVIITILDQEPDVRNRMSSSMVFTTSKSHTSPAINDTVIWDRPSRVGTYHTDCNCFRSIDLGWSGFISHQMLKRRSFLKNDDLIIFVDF
# PROTOCOL TEXT: Meprin α assay, fluorogenic substrate (Mca)-YVADAPK-(K-ε-Dnp), 384 and 1536 well plate formats
# Type: biochemical
# CONDITION CONTEXT: 1536 wpf; 1.3 nM enzyme; substrate 2.5uM; time 60 min; read-out: Actinonin IC50
MEASUREMENT KIND: pIC50
Please express pIC50 as -log10 of the molar concentration.

For the record CCCCC[C@H](CC(=O)NO)C(=O)N[C@H](C(=O)N1CCC[C@H]1CO)C(C)C [Actinonin, actinonin] , what value of pIC50 is listed for meprin α (Homo sapiens, UniProt Q16819)?
8.47
